We begin with a simple list: items and their reported IC50.
measured_target: UniProt:Q12809
Sequence (Q12809 whole entry): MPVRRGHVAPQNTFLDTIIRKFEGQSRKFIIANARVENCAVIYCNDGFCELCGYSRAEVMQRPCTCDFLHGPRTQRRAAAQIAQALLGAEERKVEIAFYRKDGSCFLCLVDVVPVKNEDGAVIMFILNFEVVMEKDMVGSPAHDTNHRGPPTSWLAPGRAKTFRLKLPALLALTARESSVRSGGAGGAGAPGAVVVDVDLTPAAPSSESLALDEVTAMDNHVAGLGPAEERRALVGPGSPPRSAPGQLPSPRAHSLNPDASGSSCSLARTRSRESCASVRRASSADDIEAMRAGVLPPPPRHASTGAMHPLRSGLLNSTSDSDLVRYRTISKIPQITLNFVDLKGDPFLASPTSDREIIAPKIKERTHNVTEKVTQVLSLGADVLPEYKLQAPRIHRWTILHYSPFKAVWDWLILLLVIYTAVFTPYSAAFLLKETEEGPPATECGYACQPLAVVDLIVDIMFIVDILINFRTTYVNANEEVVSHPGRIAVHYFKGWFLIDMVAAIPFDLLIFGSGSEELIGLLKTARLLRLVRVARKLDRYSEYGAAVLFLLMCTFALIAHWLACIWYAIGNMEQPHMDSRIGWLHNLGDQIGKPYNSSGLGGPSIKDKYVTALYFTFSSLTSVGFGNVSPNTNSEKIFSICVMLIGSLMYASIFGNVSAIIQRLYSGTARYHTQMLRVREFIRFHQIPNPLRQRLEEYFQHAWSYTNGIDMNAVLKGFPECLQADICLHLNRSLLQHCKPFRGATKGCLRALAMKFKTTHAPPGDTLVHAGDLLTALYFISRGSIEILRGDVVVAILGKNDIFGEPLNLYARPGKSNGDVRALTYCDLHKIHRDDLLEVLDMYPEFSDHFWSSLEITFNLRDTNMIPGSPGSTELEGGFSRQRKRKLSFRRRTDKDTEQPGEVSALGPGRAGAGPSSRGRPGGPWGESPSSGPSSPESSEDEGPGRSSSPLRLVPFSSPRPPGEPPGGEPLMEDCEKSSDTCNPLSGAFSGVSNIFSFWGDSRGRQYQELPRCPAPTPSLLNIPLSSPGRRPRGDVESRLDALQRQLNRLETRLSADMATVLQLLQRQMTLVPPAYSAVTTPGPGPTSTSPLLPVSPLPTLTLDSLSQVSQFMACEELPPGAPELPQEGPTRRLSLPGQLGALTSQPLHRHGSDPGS
assay_explanation: Cardiac channel Herg current recordings

>  <molecule>
CC(C)(O)CNC(=O)Cc1cc(Nc2c(Cl)cc(Cl)cc2Cl)ccc1F [NH66]

>  <IC50>
> 60 µM

$$$$
>  <molecule>
CC(C)(O)CCNC(=O)Cc1cc(Nc2c(Cl)cc(Cl)cc2C2CC2)ccc1F [NH101]

>  <IC50>
> 50 µM

$$$$
>  <molecule>
O=C(Cc1cc(Nc2c(Cl)cc(Cl)cc2Cl)ccc1F)NCCO [NH43, reference compound]

>  <IC50>
> 60 µM

$$$$
>  <molecule>
O=C(Cc1ccc(Nc2c(Cl)cc(C(F)(F)F)cc2Cl)cc1)NCCO [NH34, reference compound]

>  <IC50>
35 µM

$$$$
>  <molecule>
CC(C)c1cc(Cl)cc(Cl)c1Nc1ccc(F)c(CC(=O)NCC(C)(C)O)c1 [NH91]

>  <IC50>
> 60 µM

$$$$
>  <molecule>
CC(C)(CO)CNC(=O)Cc1cc(Nc2c(Cl)cc(Cl)cc2Cl)ccc1F [NH82]

>  <IC50>
> 100 µM

$$$$
>  <molecule>
CCOC(=O)Nc1ccc(NCc2ccc(F)cc2)cc1N [Retigabine, reference compound]

>  <IC50>
> 30 µM

$$$$
>  <molecule>
O=C(Cc1cc([N+](=O)[O-])cc([N+](=O)[O-])c1Nc1c(Cl)cc([N+](=O)[O-])cc1Cl)NCCO [NH29, reference compound]

>  <IC50>
5 µM

$$$$

Attribution: patent US11427531B2
